Reference for the values: paper PMC10786891

Target: T1, EsCas13d, nuclease-dead (Eubacterium siraeum, UniProt B0MS50, R295A;H300A;R849A;H854A)
T1 sequence: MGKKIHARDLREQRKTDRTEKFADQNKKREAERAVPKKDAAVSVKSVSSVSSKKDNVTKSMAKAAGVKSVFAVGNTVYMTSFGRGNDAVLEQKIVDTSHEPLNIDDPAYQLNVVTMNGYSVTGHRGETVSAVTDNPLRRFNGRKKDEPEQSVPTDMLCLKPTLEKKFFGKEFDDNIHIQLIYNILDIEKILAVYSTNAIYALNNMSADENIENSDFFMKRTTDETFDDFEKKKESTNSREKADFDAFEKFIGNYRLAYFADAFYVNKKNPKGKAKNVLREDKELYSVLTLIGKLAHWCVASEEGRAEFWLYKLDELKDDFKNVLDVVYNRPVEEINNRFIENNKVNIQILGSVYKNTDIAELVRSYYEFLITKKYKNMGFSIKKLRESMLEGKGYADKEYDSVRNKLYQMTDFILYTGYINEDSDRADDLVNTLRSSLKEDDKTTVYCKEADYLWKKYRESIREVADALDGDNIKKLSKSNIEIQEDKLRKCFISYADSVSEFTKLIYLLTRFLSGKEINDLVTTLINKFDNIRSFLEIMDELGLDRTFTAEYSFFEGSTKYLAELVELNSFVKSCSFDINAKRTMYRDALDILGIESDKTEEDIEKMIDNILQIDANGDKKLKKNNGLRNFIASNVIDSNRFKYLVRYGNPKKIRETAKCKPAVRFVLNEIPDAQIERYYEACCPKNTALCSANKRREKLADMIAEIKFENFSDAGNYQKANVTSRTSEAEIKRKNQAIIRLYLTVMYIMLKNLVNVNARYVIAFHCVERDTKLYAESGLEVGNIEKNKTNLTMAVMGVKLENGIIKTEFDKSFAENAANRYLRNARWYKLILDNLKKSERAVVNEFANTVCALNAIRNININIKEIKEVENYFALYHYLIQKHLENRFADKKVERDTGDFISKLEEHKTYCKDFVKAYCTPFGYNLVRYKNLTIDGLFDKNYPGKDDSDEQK
Test: crRNA (strand 1, pre-loaded); Mg2+; 40 mM Tris-HCl pH 7.5, 150 mM NaCl, 6 mM MgCl2, 1 mM DTT, 0.1% Tween-20, 0.2 mg/ml BSA; 25 C; 10 min per concentration, then washed
Settings: tags: His6-TwinStrep-SUMO cleaved; N-terminal SNAP kept (SNAP-Surface 488); label: 3' end held by stalled T7 RNA polymerase
Hi! Just check whether Kd is below 30 nM. Below gives 1, equal or above gives -1.

1) target 2 MT 5'PFS CAG 3'PFS CUG (mixed) RNA 1: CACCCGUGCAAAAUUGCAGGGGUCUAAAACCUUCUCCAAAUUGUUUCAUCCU RNA 2: GGGAAUGGAUCCACAUCUACGAAUUCCAGAGGAUGAAACAAUUUGGAGAAGCUGAGAUCGGAAGAGCACACGU | 1
2) target 2 MT 5'PFS CAU 3'PFS AAC (mixed) RNA 1: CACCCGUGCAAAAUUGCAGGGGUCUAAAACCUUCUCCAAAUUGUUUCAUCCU RNA 2: GGGAAUGGAUCCACAUCUACGAAUUCCAUAGGAUGAAACAAUUUGGAGAAGAACAGAUCGGAAGAGCACACGU | 1

input: Input target 1 insU 3' of 21,insU 3' of 5 (mixed) RNA 1: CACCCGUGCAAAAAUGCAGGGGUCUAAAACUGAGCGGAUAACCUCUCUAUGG RNA 2: GGGAAUGGAUCCACAUCUACGAAUUCGUACCUAUAGAGAGGUUAUCCGUCUCACCGAGAUCGGAAGAGCACACGU ; condition: Kd strictly below 30 nM. Does it hold?
output: -1

input: Input target 1 C7A,G15C (mixed) RNA 1: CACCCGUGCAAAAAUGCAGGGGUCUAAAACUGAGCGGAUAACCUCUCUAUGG RNA 2: GGGAAUGGAUCCACAUCUACGAAUUCGUACCAUAGACAGGUUAUACGCUCACCGAGAUCGGAAGAGCACACGU ; condition: Kd strictly below 30 nM. Does it hold?
output: -1

input: Input target 2 MT 5'PFS AAA 3'PFS AUU (mixed) RNA 1: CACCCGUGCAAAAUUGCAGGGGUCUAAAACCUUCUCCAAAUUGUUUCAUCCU RNA 2: GGGAAUGGAUCCACAUCUACGAAUUCAAAAGGAUGAAACAAUUUGGAGAAGAUUAGAUCGGAAGAGCACACGU ; condition: Kd strictly below 30 nM. Does it hold?
output: 1

input: Input target 1 complement block 5-7 (mixed) RNA 1: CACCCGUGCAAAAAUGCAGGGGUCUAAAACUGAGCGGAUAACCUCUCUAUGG RNA 2: GGGAAUGGAUCCACAUCUACGAAUUCGUACCAUAGAGAGGUUAUGGCCUCACCGAGAUCGGAAGAGCACACGU ; condition: Kd strictly below 30 nM. Does it hold?
output: -1

input: Input target 1 MT 5'PFS UAA 3'PFS UAA (mixed) RNA 1: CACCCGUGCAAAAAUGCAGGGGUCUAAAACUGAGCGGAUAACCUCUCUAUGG RNA 2: GGGAAUGGAUCCACAUCUACGAAUUCUAACCAUAGAGAGGUUAUCCGCUCAUAAAGAUCGGAAGAGCACACGU ; condition: Kd strictly below 30 nM. Does it hold?
output: -1
